target: Fyn SH2 variant V24 (T3S/T4S/S6A/K8L), His-tag protein (human); experiment: ELISA
Square brackets hold non-standard residues; d marks the D form. Ends that are not written are not given here. * marks the point of attachment. Biotin = O=C1N[C@H]2[C@H](CS[C@H]2CCCCC(=O)*)N1; pY = N[C@@H](Cc1ccc(OP(=O)(O)O)cc1)C(=O)O; Ahx = NCCCCCC(=O)O
propertyLabel: EC50

Query string: Quote EC50 reported for {Biotin-Ahx-Ahx}-EPQ[pY]EEIPIYL [biotin-ahx-ahx-EPQpYEEIPIYL] please.
Result string: < 200 nM

Values compiled from paper doi:10.1101/2020.10.30.361790.
